Source of measurements: patent US20140155384A1

- subjectOfTest: human recombinant adrenergic α2B receptor (Homo sapiens, UniProt P18089)
- Construct: expressed in transfected cells; host or cells: CHO-K1
- Sequence (P18089 whole entry): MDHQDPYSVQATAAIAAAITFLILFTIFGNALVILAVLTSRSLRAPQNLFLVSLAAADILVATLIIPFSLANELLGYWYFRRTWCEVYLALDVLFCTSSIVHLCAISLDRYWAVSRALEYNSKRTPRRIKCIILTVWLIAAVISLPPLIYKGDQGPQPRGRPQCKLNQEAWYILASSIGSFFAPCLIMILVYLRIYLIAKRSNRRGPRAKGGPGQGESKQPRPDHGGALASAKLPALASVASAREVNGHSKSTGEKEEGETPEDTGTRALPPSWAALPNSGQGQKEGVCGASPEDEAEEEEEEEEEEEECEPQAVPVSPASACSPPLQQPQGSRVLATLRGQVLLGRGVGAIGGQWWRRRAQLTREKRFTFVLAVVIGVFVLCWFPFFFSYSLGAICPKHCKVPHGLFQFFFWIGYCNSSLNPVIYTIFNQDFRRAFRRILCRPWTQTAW
- testMethodNotes: Radioligand binding, adrenergic α2B receptor ([3H]Rauwolscine)
- statedConditions: 0.1 μM compound, CHO-K1 cells, read-out: Percentage inhibition of ligand binding, Adrenergic α2B
Quick rule for you: inhibition at 0.1 µM at 90% or higher means True, lower means False.

compound="Cc1ccc2c(c1)c1c(n2-c2ccc(-c3cccc4ccccc34)cn2)CCN(C)C1 [Compound No. 141]" class=False
compound="CNC(=O)c1ccc(-c2cscc2-n2c3c(c4cc(C)ccc42)CN(C)CC3)cn1 [Compound No. 73]" class=True
compound="Cc1ccc2c(c1)c1c(n2-c2ccc3c(c2)CCN(C=O)C3)CCN(C)C1 [Compound No. 77]" class=False
compound="Cc1ccc2c(c1)c1c(n2-c2cscc2-c2cc3ccccc3s2)CCN(C)C1 [Compound No. 151]" class=True
compound="Cc1ccc2c(c1)c1c(n2-c2ccccc2-c2cccn2C)CCN(C)C1 [Compound No. 100]" class=True

###

- subjectOfTest: human recombinant adrenergic α2B receptor (Homo sapiens, UniProt P18089)
- Construct: expressed in transfected cells; host or cells: CHO-K1
- testMethodNotes: Radioligand binding, adrenergic α2B receptor ([3H]Rauwolscine)
- statedConditions: 0.1 μM compound, CHO-K1 cells, read-out: Percentage inhibition of ligand binding, Adrenergic α2B
Listed next: entries and their corresponding inhibition at 0.1 µM.
readoutName: inhibition at 0.1 µM (%)

molecule="Cc1ccc2c(c1)c1c(n2-c2cccc(-c3ccc(F)nc3)c2)CCN(C)C1 [Compound 44]" readoutname="inhibition at 0.1 µM" resultvalue=12
molecule="Cc1ccc2c(c1)c1c(n2-c2cscc2-c2cccc3[nH]ncc23)CCN(C)C1 [Compound 41]" readoutname="inhibition at 0.1 µM" resultvalue=70
molecule="CNC(=O)c1ccc(-c2cscc2-n2c3c(c4cc(C)ccc42)CN(C)CC3)cc1 [Compound No. 155]" readoutname="inhibition at 0.1 µM" resultvalue=74
molecule="Cc1ccc2c(c1)c1c(n2-c2ccc(-c3c(C)noc3C)cn2)CCN(C)C1 [Compound No. 137]" readoutname="inhibition at 0.1 µM" resultvalue=92
molecule="Cc1ccc2c(c1)c1c(n2-c2ccc(-c3ccc(F)cc3)cn2)CCN(C)C1 [Compound No. 140]" readoutname="inhibition at 0.1 µM" resultvalue=96
molecule="Cc1ccc2c(c1)c1c(n2-c2cscc2-c2cncc3ccccc23)CCN(C)C1 [Compound 34]" readoutname="inhibition at 0.1 µM" resultvalue=1
molecule="Cc1ccc2c(c1)c1c(n2-c2cccc(-c3c(C)noc3C)c2)CCN(C)C1 [Compound No. 65]" readoutname="inhibition at 0.1 µM" resultvalue=46
molecule="Cc1ccc2c(c1)c1c(n2-c2cccc(-c3cccn3C)c2)CCN(C)C1 [Compound No. 69]" readoutname="inhibition at 0.1 µM" resultvalue=3
molecule="Cc1ccc2c(c1)c1c(n2-c2cccs2)CCN(C)C1 [Compound 16]" readoutname="inhibition at 0.1 µM" resultvalue=16
molecule="Cc1ccc2c(c1)c1c(n2-c2ccc3cnccc3c2)CCN(C)C1 [Compound 38]" readoutname="inhibition at 0.1 µM" resultvalue=57
molecule="Cc1ccc2c(c1)c1c(n2-c2cccc(-c3cncc4ccccc34)c2)CCN(C)C1 [Compound No. 67]" readoutname="inhibition at 0.1 µM" resultvalue=13
molecule="Cc1csc(-c2ccccc2-n2c3c(c4cc(C)ccc42)CN(C)CC3)c1 [Compound 36]" readoutname="inhibition at 0.1 µM" resultvalue=79
molecule="Cc1ccc2c(c1)c1c(n2-c2cscc2-c2ccc(F)nc2)CCN(C)C1 [Compound 35]" readoutname="inhibition at 0.1 µM" resultvalue=95
molecule="Cc1ccc2c(c1)c1c(n2-c2ccccc2-c2ccc(S(C)(=O)=O)cc2)CCN(C)C1 [Compound No. 160]" readoutname="inhibition at 0.1 µM" resultvalue=74
molecule="Cc1ccc2c(c1)c1c(n2-c2cccc(-c3ccc(F)cc3)c2)CCN(C)C1 [Compound No. 61]" readoutname="inhibition at 0.1 µM" resultvalue=7
